target: Biotinylated 2019-nCoV (COVID-19) S1 protein (16-685), His, Avitag (SARS-CoV-2), P0DTC2; experiment: SPR, Biacore T200, geomean
Experimental readout: Kd (nM)

INSERT INTO assay_data (binder, assay_value) VALUES
  ('CIPLDWTCMIAC (modifications not checked) [BCY18707]', 2440);
